Tested Target: DNA topoisomerase 1 (Homo sapiens) (UniProt P11387)
Sequence (P11387 whole entry): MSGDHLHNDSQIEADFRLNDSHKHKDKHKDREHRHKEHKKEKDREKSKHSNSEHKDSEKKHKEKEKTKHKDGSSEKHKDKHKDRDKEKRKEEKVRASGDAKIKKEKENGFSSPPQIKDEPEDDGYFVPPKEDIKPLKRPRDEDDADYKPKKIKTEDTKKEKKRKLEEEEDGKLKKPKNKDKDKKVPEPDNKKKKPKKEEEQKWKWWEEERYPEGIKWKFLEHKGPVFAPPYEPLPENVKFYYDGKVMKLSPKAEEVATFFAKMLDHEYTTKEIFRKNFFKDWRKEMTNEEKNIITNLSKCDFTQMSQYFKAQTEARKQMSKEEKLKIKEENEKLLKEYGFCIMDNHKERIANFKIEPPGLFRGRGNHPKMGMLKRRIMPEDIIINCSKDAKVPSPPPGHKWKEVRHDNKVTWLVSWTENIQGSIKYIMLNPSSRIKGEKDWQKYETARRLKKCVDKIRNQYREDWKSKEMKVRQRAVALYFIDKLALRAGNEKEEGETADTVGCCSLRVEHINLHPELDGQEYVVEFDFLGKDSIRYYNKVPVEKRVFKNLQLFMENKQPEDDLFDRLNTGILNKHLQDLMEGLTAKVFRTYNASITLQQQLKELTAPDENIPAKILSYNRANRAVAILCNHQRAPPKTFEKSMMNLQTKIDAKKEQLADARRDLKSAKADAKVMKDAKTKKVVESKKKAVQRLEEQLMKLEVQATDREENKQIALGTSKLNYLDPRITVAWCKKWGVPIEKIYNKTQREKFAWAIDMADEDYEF
Method Summary: Inhibition of recombinant human topoisomerase 1-mediated relaxation of supercoiled pBR322 DNA at 100 uM measured after 30 mins by ethidium bromide staining based agarose gel electrophoresis relative to control
Result Type: inhibition (%)

[[record]]
structure = "Oc1ccc2c(c1)-c1nc(-c3ccccc3O)cc(-c3ccccc3Cl)c1C2"
tested_target = "DNA topoisomerase 1 (Homo sapiens) (UniProt P11387)"
result_number = 59.1

[[record]]
structure = "Oc1cccc(-c2cc(-c3cccc(Cl)c3)nc3c2Cc2c(O)cccc2-3)c1"
tested_target = "DNA topoisomerase 1 (Homo sapiens) (UniProt P11387)"
result_number = 0.5

[[record]]
structure = "Oc1cccc(-c2cc(-c3ccc(Cl)cc3)nc3c2Cc2c(O)cccc2-3)c1"
tested_target = "DNA topoisomerase 1 (Homo sapiens) (UniProt P11387)"
result_number = 18.6


I = Oc1ccccc1-c1cc(-c2cccc(Cl)c2)c2c(n1)-c1c(O)cccc1C2
II = Oc1cccc(-c2cc(-c3ccccc3)nc3c2Cc2cccc(O)c2-3)c1
III = Oc1ccc(-c2cc(-c3ccc(Cl)cc3)c3c(n2)-c2cc(O)ccc2C3)cc1
*Q* Highest inhibition first, then in falling order down to the smallest. Write out the labels following the order that was asked for.
*A* III, II, I

1 = Oc1cccc(-c2cc(-c3ccccc3C(F)(F)F)nc3c2Cc2ccc(O)cc2-3)c1
2 = Oc1ccc(-c2cc(-c3cccc(C(F)(F)F)c3)nc3c2Cc2ccc(O)cc2-3)cc1
3 = Oc1ccc(-c2cc(-c3ccccc3)c3c(n2)-c2cccc(O)c2C3)cc1
4 = Oc1ccc(-c2cc(-c3ccccc3Cl)nc3c2Cc2cccc(O)c2-3)cc1
*Q* Number of compounds to sort: 4. Sort criterion: inhibition, ascending. Write out the labels following the order that was asked for.
*A* 4, 1, 3, 2

P = Oc1cccc(-c2cc(-c3ccccc3F)nc3c2Cc2cc(O)ccc2-3)c1
Q = Oc1cccc(-c2cc(-c3ccc(Cl)cc3)c3c(n2)-c2ccc(O)cc2C3)c1
R = Oc1cccc(-c2cc(-c3cccc(Cl)c3)nc3c2Cc2cc(O)ccc2-3)c1
S = Oc1ccc(-c2cc(-c3cccc(Cl)c3)c3c(n2)-c2c(O)cccc2C3)cc1
*Q* Highest inhibition first, then in falling order down to the smallest. Write out the labels following the order that was asked for.
*A* P, S, Q, R

A = Oc1ccc(-c2cc(-c3ccccc3Cl)nc3c2Cc2cc(O)ccc2-3)cc1
B = Oc1ccccc1-c1cc(-c2cccc(Cl)c2)nc2c1Cc1c(O)cccc1-2
C = Oc1ccccc1-c1cc(-c2cccc(C(F)(F)F)c2)nc2c1Cc1cccc(O)c1-2
D = Oc1cccc(-c2cc(-c3cccc(F)c3)nc3c2Cc2cccc(O)c2-3)c1
*Q* Number of compounds to sort: 4. Sort criterion: inhibition, ascending. Write out the labels following the order that was asked for.
*A* B, C, A, D
(B: 0%, C: 2.7%, A: 7.6%, D: 14%)

* * *

Tested on: DU-145
Method Summary: Antiproliferative activity against human DU145 cells measured after 72 hrs by EZ-Cytox assay
Assay type: functional, cell-based
Assay Context: DU-145, 72 h
Result Type: IC50 (µM)
Please give a number only; it is taken to be in µM.

[[record]]
structure = "Oc1ccc2c(c1)Cc1c(-c3ccccc3O)cc(-c3ccc(C(F)(F)F)cc3)nc1-2"
result_number = 2.09


*Q* Query the reported IC50 for DU-145; item: Oc1ccc(-c2cc(-c3ccccc3Cl)c3c(n2)-c2ccc(O)cc2C3)cc1
*A* 3.25

*Q* Item: Oc1ccccc1-c1cc(-c2ccc(Cl)cc2)c2c(n1)-c1c(O)cccc1C2
*A* 1.95

*Q* Item: Oc1ccc2c(c1)Cc1c(-c3ccccc3O)cc(-c3ccccc3C(F)(F)F)nc1-2
*A* 2.02

*Q* Item: Oc1cccc(-c2cc(-c3cccc(C(F)(F)F)c3)nc3c2Cc2cc(O)ccc2-3)c1
*A* 1.42

*Q* Item: Oc1cccc2c1Cc1c(-c3ccccc3)cc(-c3ccccc3)nc1-2
*A* 2.71

*Q* Item: Oc1ccccc1-c1cc(-c2cccc(C(F)(F)F)c2)nc2c1Cc1c(O)cccc1-2
*A* 1.87

*Q* Item: Oc1ccc2c(c1)-c1nc(-c3ccccc3)cc(-c3ccccc3O)c1C2
*A* 0.15

*Q* Item: Oc1ccc2c(c1)Cc1c(-c3ccccc3)cc(-c3ccccc3O)nc1-2
*A* 1.62

* * *

Tested on: HeLa
Method Summary: Antiproliferative activity against human HeLa cells measured after 72 hrs by EZ-Cytox assay
Format: functional, cell-based
Result Type: pIC50
The value called pIC50 is obtained by taking minus log10 of the concentration in mol/L.

Worked examples, 3 compounds total:
[[record]]
structure = "Oc1ccc2c(c1)Cc1c(-c3ccccc3O)cc(-c3ccccc3C(F)(F)F)nc1-2"
tested_target = "HeLa"
result_number = 5.53

[[record]]
structure = "Oc1cccc(-c2cc(-c3ccccc3Cl)nc3c2Cc2cccc(O)c2-3)c1"
tested_target = "HeLa"
result_number = 5.28

[[record]]
structure = "Oc1ccc(-c2cc(-c3cccc(C(F)(F)F)c3)nc3c2Cc2cc(O)ccc2-3)cc1"
tested_target = "HeLa"
result_number = 5.34


*Q* Query the reported pIC50 for HeLa; item: Oc1ccccc1-c1cc(-c2cccc(Cl)c2)nc2c1Cc1cccc(O)c1-2
*A* 5.44

*Q* Item: Oc1ccccc1-c1cc(-c2ccccc2C(F)(F)F)nc2c1Cc1cccc(O)c1-2
*A* 5.70

*Q* Item: Oc1cccc(-c2cc(-c3cccc(Cl)c3)nc3c2Cc2ccc(O)cc2-3)c1
*A* 5.26

*Q* Item: Oc1ccc(-c2cc(-c3ccc(Cl)cc3)c3c(n2)-c2cccc(O)c2C3)cc1
*A* 4.74

* * *

Tested Target: DNA topoisomerase 2-alpha (Homo sapiens) (UniProt P11388)
Sequence (P11388 whole entry): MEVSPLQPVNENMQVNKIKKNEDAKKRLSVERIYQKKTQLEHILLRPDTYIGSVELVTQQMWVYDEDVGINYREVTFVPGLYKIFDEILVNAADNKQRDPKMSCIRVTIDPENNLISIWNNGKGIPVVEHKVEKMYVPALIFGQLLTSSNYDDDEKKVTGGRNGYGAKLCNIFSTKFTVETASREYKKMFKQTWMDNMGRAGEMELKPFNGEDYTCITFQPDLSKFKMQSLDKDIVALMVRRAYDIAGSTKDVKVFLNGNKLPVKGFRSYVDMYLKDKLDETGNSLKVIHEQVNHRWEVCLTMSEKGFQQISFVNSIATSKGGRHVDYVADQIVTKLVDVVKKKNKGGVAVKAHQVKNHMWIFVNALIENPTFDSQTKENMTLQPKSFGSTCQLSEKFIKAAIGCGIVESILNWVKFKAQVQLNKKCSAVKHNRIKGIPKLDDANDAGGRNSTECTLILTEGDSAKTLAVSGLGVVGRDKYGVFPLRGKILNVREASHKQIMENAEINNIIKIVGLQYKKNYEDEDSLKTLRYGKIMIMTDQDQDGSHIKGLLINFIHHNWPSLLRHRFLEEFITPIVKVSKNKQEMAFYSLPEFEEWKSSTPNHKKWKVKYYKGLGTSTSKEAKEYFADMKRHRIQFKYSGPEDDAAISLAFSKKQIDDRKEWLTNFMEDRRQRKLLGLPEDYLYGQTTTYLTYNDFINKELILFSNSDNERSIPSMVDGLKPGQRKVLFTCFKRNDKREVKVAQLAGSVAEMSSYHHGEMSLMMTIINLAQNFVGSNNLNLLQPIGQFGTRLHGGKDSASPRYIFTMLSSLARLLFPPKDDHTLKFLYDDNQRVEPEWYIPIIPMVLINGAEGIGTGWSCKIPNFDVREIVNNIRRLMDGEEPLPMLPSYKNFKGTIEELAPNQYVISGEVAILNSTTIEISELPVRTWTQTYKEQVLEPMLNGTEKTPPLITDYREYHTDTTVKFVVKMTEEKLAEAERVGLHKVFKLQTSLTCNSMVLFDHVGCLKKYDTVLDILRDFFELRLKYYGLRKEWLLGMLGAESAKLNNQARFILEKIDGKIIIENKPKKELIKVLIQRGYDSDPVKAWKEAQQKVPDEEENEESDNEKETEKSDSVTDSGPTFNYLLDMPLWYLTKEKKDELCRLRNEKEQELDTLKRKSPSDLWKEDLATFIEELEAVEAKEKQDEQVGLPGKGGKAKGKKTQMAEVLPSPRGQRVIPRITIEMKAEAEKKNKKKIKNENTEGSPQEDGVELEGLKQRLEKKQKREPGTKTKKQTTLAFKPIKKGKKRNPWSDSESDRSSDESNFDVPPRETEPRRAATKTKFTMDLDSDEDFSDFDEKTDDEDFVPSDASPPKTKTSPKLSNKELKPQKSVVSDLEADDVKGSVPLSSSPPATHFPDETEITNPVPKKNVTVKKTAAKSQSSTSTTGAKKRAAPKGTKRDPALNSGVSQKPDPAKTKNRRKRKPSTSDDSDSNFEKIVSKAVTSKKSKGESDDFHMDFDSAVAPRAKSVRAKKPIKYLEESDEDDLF
Method Summary: Inhibition of recombinant human topoisomerase 2alpha-mediated relaxation of supercoiled pBR322 DNA at 20 uM measured after 30 mins by ethidium bromide staining based agarose gel electrophoresis relative to control
Result Type: inhibition (%)

Worked examples, 4 molecules total:
[[record]]
structure = "Oc1ccc2c(c1)-c1nc(-c3cccc(C(F)(F)F)c3)cc(-c3ccccc3O)c1C2"
result_type = "inhibition"
result_number = 2.8

[[record]]
structure = "Oc1ccc(-c2cc(-c3ccc(F)cc3)nc3c2Cc2ccc(O)cc2-3)cc1"
result_type = "inhibition"
result_number = 1.4

[[record]]
structure = "Oc1ccc2c(c1)Cc1c(-c3cccc(Cl)c3)cc(-c3ccccc3O)nc1-2"
result_type = "inhibition"
result_number = 3.4

[[record]]
structure = "Oc1ccc2c(c1)-c1nc(-c3ccc(Cl)cc3)cc(-c3ccccc3O)c1C2"
result_type = "inhibition"
result_number = 25.7


1 = Oc1cccc(-c2cc(-c3ccccc3C(F)(F)F)nc3c2Cc2ccc(O)cc2-3)c1
2 = Oc1ccc(-c2cc(-c3ccc(C(F)(F)F)cc3)nc3c2Cc2c(O)cccc2-3)cc1
*Q* Field: lower recorded inhibition (choose 1 or 2 ) Could you answer with the label of the item you picked?
*A* 1
(1: 3.1%, 2: 11.1%)

I = Oc1ccc(-c2cc(-c3ccc(Cl)cc3)c3c(n2)-c2cccc(O)c2C3)cc1
II = Oc1ccccc1-c1cc(-c2ccc(C(F)(F)F)cc2)nc2c1Cc1cccc(O)c1-2
*Q* Field: lower recorded inhibition (choose I or II ) Could you answer with the label of the item you picked?
*A* II

I = Oc1ccc(-c2cc(-c3cccc(Cl)c3)c3c(n2)-c2c(O)cccc2C3)cc1
II = Oc1cccc(-c2cc(-c3ccc(Cl)cc3)nc3c2Cc2cccc(O)c2-3)c1
III = Oc1ccc(-c2cc(-c3cccc(Cl)c3)nc3c2Cc2ccc(O)cc2-3)cc1
IV = Oc1ccc2c(c1)Cc1c(-c3ccccc3O)cc(-c3ccc(Cl)cc3)nc1-2
V = Oc1ccc(-c2cc(-c3cccc(C(F)(F)F)c3)nc3c2Cc2c(O)cccc2-3)cc1
*Q* Highest inhibition first, then in falling order down to the smallest. Write out the labels following the order that was asked for.
*A* III, II, I, IV, V

* * *

Method Summary: Stability in rat plasma assessed as parent compound remaining at 1 mM measured immediately by LC-MS/MS analysis
Type: ADME, cell-free
Assay Context: read-out: Stability
Result Type: remaining at 0 h (%)
Please give a number only; it is taken to be in %.

*Q* Please report the recorded remaining at 0 h for Oc1ccc(-c2cc(-c3ccccc3Cl)nc3c2Cc2c(O)cccc2-3)cc1 .
*A* 100

* * *

Tested Target: DNA topoisomerase 2-alpha (Homo sapiens) (UniProt P11388)
Method Summary: Inhibition of recombinant human topoisomerase 2alpha-mediated relaxation of supercoiled pBR322 DNA at 20 uM measured after 30 mins by ethidium bromide staining based agarose gel electrophoresis relative to control
Result Type: inhibition (%)

[[record]]
structure = "Oc1cccc(-c2cc(-c3ccccc3Cl)c3c(n2)-c2ccc(O)cc2C3)c1"
result_type = "inhibition"
result_number = 20


P = Oc1cccc(-c2cc(-c3cccc(Cl)c3)c3c(n2)-c2ccc(O)cc2C3)c1
Q = Oc1cccc(-c2cc(-c3ccc(C(F)(F)F)cc3)nc3c2Cc2cc(O)ccc2-3)c1
*Q* Which record would sort first by descending inhibition, P or Q ? Could you answer with the label of the item you picked?
*A* P
(P: 27%, Q: 14.9%)
